A set of molecules tested on FGFR2 (Homo sapiens, UniProt P21802), with measured IC50:

Field: example entries. Status: answers known.
# MOLECULE, IC50
rows = [
    ("C=CC(=O)Nc1ccc(-c2nn3ncnc(N)c3c2-c2ccc(C(=O)NCC(F)(F)F)c(OC)c2)c(F)c1 [Compound 86]", "< 5 nM"),
    ("C=C(C)C(=O)Nc1ccc(-c2c(-c3ccc(Oc4nccc(C)n4)cc3)c3c(N)ncc(C#N)c3n2C)c(F)c1 [Compound 467]", "> 10 nM"),
    ("C=CC(=O)Nc1ccc(-c2nn3ncnc(N)c3c2-c2ccc(C(=O)NC3(C)CC3)c(OC)c2)cc1 [Compound 162]", "< 5 nM"),
]

Now look at this one.
# C=C(F)C(=O)Nc1ccc(-c2nn3ncnc(N)c3c2-c2ccc(C(=O)NC3CC(F)(F)C3)c(OC)c2)c(F)c1 [Compound 234] with FGFR2 (Homo sapiens, UniProt P21802): IC50 is < 5 nM
